Measured Emax at 10 µM, listed per entry for reference.
Tested on: L6-myotubes
Assay: Glucose uptake in differentiated L6-myotubes (Biological Example 2)
Type: cell-based
Conditions: glucose uptake in differentiated L6-myotubes; compound at 10 μM, activity relative to isoproterenol at 10 μM; read-out: Biological example 2 (GU)

Compound	Emax at 10 µM
O[C@H](c1cccc(F)c1)C12CCC(Cc3ccc(F)cc3)(CC1)N2 [Compound 413]	> 75%
CO[C@H]1CC[C@H](C[C@]2(C)CC[C@H]([C@@H](O)c3cccc(F)c3)N2)CC1 [Compound 363]	> 75%
CC(C)(C[C@H]1CC[C@H](NC(=O)C(C)(C)C)CC1)NC[C@H](O)c1cccc(F)c1 [Compound 429]	> 75%
CC(=O)N[C@H]1CC[C@@H](CC(C)(C)NC[C@H](O)c2cccc(F)c2)CC1 [Compound 452]	> 75%

* * *

System: L6-myotubes
Experiment: Measurement of intracellular cAMP levels in differentiated L6-myotubes (Biological Example 3)
Format: cell-based
Settings: 0.25 h, intracellular cAMP in differentiated L6-myotubes; compound at 10 μM, activity relative to isoproterenol at 10 μM

Compound	Emax at 10 µM
CC(C)(NC[C@H](O)c1cncc(F)c1)[C@H]1CC[C@H](OCC(=O)O)CC1 [Compound 419]	< 25%
O[C@@H](c1cccc(F)c1)C12CCC(COCc3ccc(Cl)cc3)(CC1)N2 [Compound 395]	< 25%
O[C@@H](CNCC[C@H]1CC[C@H](OCc2ccccc2)CC1)c1cccc(F)c1 [Compound 288]	< 25%
CC(=O)N(Cc1ccccc1)[C@H]1CC[C@H](C[C@@H]2CC[C@H]([C@@H](O)c3cccc(F)c3)N2)CC1 [Compound 481]	< 25%
O[C@H](c1cncc(F)c1)C12CCC(C/C=C/c3ccccc3)(CC1)N2 [Compound 530]	25 to 50%
CC(C)(C[C@H]1CC[C@H](NC(=O)C2CC2)CC1)NC[C@H](O)c1cccc(F)c1 [Compound 432]	> 75%
CC(C)(C[C@H]1CC[C@@H](NS(=O)(=O)C(F)(F)F)CC1)NC[C@H](O)c1cncc(F)c1 [Compound 522]	< 25%
CC(C)(C[C@H]1CC[C@H](NC(=O)C(C)(C)C)CC1)NC[C@H](O)c1cccc(F)c1 [Compound 429]	25 to 50%
O=C(N[C@H]1CC[C@H](CNC[C@H](O)c2cncc(F)c2)CC1)c1ccccc1 [Compound 317]	< 25%
CC(=O)N[C@H]1CC[C@H](CNC[C@H](O)c2cncc(F)c2)CC1 [Compound 309]	< 25%
CC(=O)N[C@H]1CC[C@H](CC(C)(C)NC[C@H](O)c2cccc(C(F)(F)F)n2)CC1 [Compound 460]	< 25%
O[C@H](c1cccc(F)c1)C12CCC(Cc3ccc(F)cc3)(CC1)N2 [Compound 413]	< 25%
CC(C)(C[C@H]1CC[C@@H](NC(=O)OC(C)(C)C)CC1)NC[C@H](O)c1cccc(C#N)n1 [Compound 414]	< 25%
CC(C)(C[C@H]1CC[C@H](S(N)(=O)=O)CC1)NC[C@H](O)c1cncc(F)c1 [Compound 518]	< 25%
COCC12CCC([C@@H](O)c3cccc(F)c3)(CC1)N2 [Compound 329]	< 25%
COc1ccc(CCC23CCC([C@@H](O)c4cncc(F)c4)(CC2)N3)cc1 [Compound 541]	< 25%
O[C@@H](CNC[C@H]1CC[C@@H](OCc2ccccc2)CC1)c1cncc(F)c1 [Compound 263]	< 25%
